- Measurement Target: HIV-1 protease (Human immunodeficiency virus type 1 group M subtype B, UniProt P04585)
- Assay Summary: biochemical
- Details: read-out: HIV-1 Protease % Inhib, dose 30.000 uM
Outcome Measure: inhibition at 30 µM (%)
All answers are understood in %, so give the number only.

Worked examples, 3 compounds total:
API: value(readout=inhibition at 30 µM, system=HIV-1 protease (Human immunodeficiency virus type 1 group M subtype B, UniProt P04585)) for record Nc1ccc(S(=O)(=O)Nc2cccc(C(c3c(O)c4c(oc3=O)CCCCCC4)C3CC3)c2)cc1 (stereo not shown)
109

Cool, now CCCC1CCCCc2c1oc(=O)c(C(c1ccccc1)C1CC1)c2O (stereo not shown)
84.5

Cool, now O=c1oc2c(c(O)c1C(c1cccc(NS(=O)(=O)c3cccs3)c1)C1CC1)CCCCCC2 (stereo not shown)
112

Continuing:
API: value(readout=inhibition at 30 µM, system=HIV-1 protease (Human immunodeficiency virus type 1 group M subtype B, UniProt P04585)) for record CCCC(c1cccc(NS(=O)(=O)c2ccc(C#N)cc2)c1)c1c(O)c2c(oc1=O)CCCCCC2 (stereo not shown) [Example 378]
112

Cool, now CCCCC(c1cccc(NS(=O)(=O)c2ccc(F)cc2)c1)c1c(O)c2c(oc1=O)CCCCCC2 (stereo not shown)
95.2

Cool, now O=c1oc2c(c(O)c1C(c1cccc(NS(=O)(=O)Nc3ccccc3)c1)C1CC1)CCCCCC2 (stereo not shown)
113

Cool, now O=c1oc2c(c(O)c1C(c1cccc(NS(=O)(=O)c3cccc(Cl)c3Cl)c1)C1CC1)CCCCCC2 (stereo not shown)
91.8

====

- Measurement Target: HIV-1 protease (Human immunodeficiency virus type 1 group M subtype B)
- Assay Summary: biochemical
- Details: read-out: HIV-1 Protease % Inhib, dose 3.300 uM
Outcome Measure: inhibition at 3.3 µM (%)
All answers are understood in %, so give the number only.

Worked examples, 3 compounds total:
GET /values?readout=inhibition at 3.3 µM&item= CC(C)(C)OC(=O)N[C@@H](Cc1c[nH]cn1)C(=O)Nc1cccc(C(c2c(O)c3c(oc2=O)CCCCCC3)C2CC2)c1 (some centres unmarked)
102

Cool, now CCCC(c1cccc(N)c1)c1c(O)c2c(oc1=O)CCCCCC2 (centres unmarked)
96.5

Cool, now COCCC1CCCCCc2c1oc(=O)c(C(c1ccccc1)C1CC1)c2O (centres unmarked)
98.8

Continuing:
GET /values?readout=inhibition at 3.3 µM&item= C[C@@H](NC(=O)OC(C)(C)C)C(=O)Nc1cccc(C(c2c(O)c3c(oc2=O)CCCCCC3)C2CC2)c1 (some centres unmarked)
94.3

Cool, now O=C(Cc1ccccc1)Nc1cccc(C(c2c(O)c3c(oc2=O)CCCCCC3)C2CC2)c1 (centres unmarked)
93.8

Cool, now CCc1ccc(S(=O)(=O)Nc2cccc(C(c3c(O)c4c(oc3=O)CCCCCC4)C3CC3)c2)cc1 (centres unmarked)
107

Cool, now O=c1oc2c(c(O)c1C(c1cccc(NS(=O)(=O)c3cccc([N+](=O)[O-])c3)c1)C1CC1)CCCCCC2 (centres unmarked)
98.8

Cool, now O=C1c2ccccc2C(=O)N1CCS(=O)(=O)Nc1cccc(C(c2c(O)c3c(oc2=O)CCCCCC3)C2CC2)c1 (centres unmarked)
105

====

// reported inhibition at 30 µM per item
- Measurement Target: UniProtKB P04585
- Assay Summary: biochemical
- Details: read-out: HIV-1 Protease % Inhib, dose 30.000 uM
All answers are understood in %, so give the number only.

Worked examples, 3 molecules total:
GET /values?readout=inhibition at 30 µM&item= O=C(CCn1ccc2ccccc21)Nc1cccc(C(c2c(O)c3c(oc2=O)CCCCC3)C2CC2)c1 (stereo not shown) [Example 215]
98.5

Cool, now O=c1oc2c(c(O)c1C(c1cccc(NS(=O)(=O)c3cccc4nsnc34)c1)C1CC1)CCCCCC2 (stereo not shown) [Example 340]
96.5

Cool, now O=c1oc2c(c(O)c1C(c1cccc(NS(=O)(=O)c3ccc(OC(F)(F)F)cc3)c1)C1CC1)CCCCCC2 (stereo not shown) [Example 312]
110

Continuing:
GET /values?readout=inhibition at 30 µM&item= CCS(=O)(=O)Nc1cccc(C(c2c(O)c3c(oc2=O)CCCCCC3)C2CC2)c1 (stereo not shown) [Example 318]
106

Cool, now Cc1sc(C(c2c(O)c3c(oc2=O)CCCCCC3)C2CC2)cc1CO (stereo not shown) [Example 394]
123

Cool, now O=c1oc2c(c(O)c1C(c1cccc(NS(=O)(=O)CCCCl)c1)C1CC1)CCCCCC2 (stereo not shown) [Example 331]
105

Cool, now CCCC(c1cccc(NS(=O)(=O)c2ccc(C#N)cc2)c1)c1c(O)c2c(oc1=O)CCCCCC2 (single isomer, unassigned) [Example 437]
105

====

// reported inhibition at 0.37 µM per item
- Measurement Target: UniProt:P04585
- Assay Summary: biochemical
- Details: read-out: HIV-1 Protease % Inhib, dose 0.370 uM
All answers are understood in %, so give the number only.

GET /values?readout=inhibition at 0.37 µM&item= O=c1oc2c(c(O)c1C(c1cccc(NS(=O)(=O)c3ccc([N+](=O)[O-])cc3)c1)C1CC1)CCCCCC2 (stereo not shown) [Example 273]
92.3

Cool, now CCCC(c1cccc(N)c1)c1c(O)c2c(oc1=O)CCCCCC2 (stereo not shown) [Example 376]
33.7

Cool, now CC(C)CC(c1cccc(NS(=O)(=O)c2ccc(C#N)cc2)c1)c1c(O)c2c(oc1=O)CCCCCC2 (stereo not shown) [Example 426]
117

Cool, now NC(=O)c1ccc(S(=O)(=O)Nc2cccc(C(c3c(O)c4c(oc3=O)CCCCCC4)C3CC3)c2)cc1 (stereo not shown) [Example 365A]
106

Cool, now O=c1oc2c(c(O)c1[C@H](c1ccccc1)C1CC1)CCCCCC2 [Example 229]
54.3

Continuing:
GET /values?readout=inhibition at 0.37 µM&item= O=c1oc2c(c(O)c1C(c1cccc(NS(=O)(=O)c3cccc(NS(=O)(=O)c4ccccc4)c3)c1)C1CC1)CCCCCC2 (stereo not shown) [Example 350]
64.3

Cool, now CC(C)(C)c1ccc(S(=O)(=O)Nc2cccc(C(c3c(O)c4c(oc3=O)CCCCCC4)C3CC3)c2)cc1 (stereo not shown) [Example 265]
54.8

Cool, now CCc1ccc(S(=O)(=O)Nc2cccc(C(c3c(O)c4c(oc3=O)CCCCCC4)C3CC3)c2)cc1 (stereo not shown) [Example 341]
92.8

Cool, now CC(C)(C)OC(=O)N[C@H](Cc1c[nH]cn1)C(=O)Nc1cccc(C(c2c(O)c3c(oc2=O)CCCCCC3)C2CC2)c1 (stereo partly shown) [Example 204]
86.5

Cool, now CC(C)C(c1ccccc1)c1c(O)c2c(oc1=O)CCCCCC2 (stereo not shown) [Example 227]
41.7

Cool, now O=c1oc2c(c(O)c1C(c1cccc(NS(=O)(=O)c3ccc(Cl)cc3)c1)C1CC1)CCCCCC2 (stereo not shown) [Example 264]
89

Cool, now O=C(O)c1ccc(S(=O)(=O)Nc2cccc(C(c3c(O)c4c(oc3=O)CCCCCC4)C3CC3)c2)cc1 (stereo not shown) [Example 276]
92.8

Cool, now COCCC1CCCCCc2c1oc(=O)c(C(c1ccccc1)C1CC1)c2O (stereo not shown) [Example 178]
45.5

Cool, now CC(C)(C)OC(=O)NCCCC(=O)Nc1cccc(C(c2c(O)c3c(oc2=O)CCCCCC3)C2CC2)c1 (stereo not shown) [Example 201]
60.1

Cool, now CC(C)S(=O)(=O)Nc1cccc(C(c2c(O)c3c(oc2=O)CCCCCC3)C2CC2)c1 (stereo not shown) [Example 328]
46

Cool, now CN(C)S(=O)(=O)Nc1cccc(C(c2c(O)c3c(oc2=O)CCCCCC3)C2CC2)c1 (stereo not shown) [Example 398]
40.9

====

- Measurement Target: HIV-1 protease (Human immunodeficiency virus type 1 group M subtype B, UniProt P04585)
- Assay Summary: biochemical
- Details: dose 1.100 uM; read-out: HIV-1 Protease % Inhib
// reported inhibition at 1.1 µM per item
All answers are understood in %, so give the number only.

Worked examples, 10 compounds total:
GET /values?readout=inhibition at 1.1 µM&item= COCCC1CCCCc2c1oc(=O)c(C(c1ccccc1)C1CC1)c2O (stereo not shown) [Example 193]
35

Cool, now CCNC(=S)Nc1cccc(C(c2c(O)c3c(oc2=O)CCCCCC3)C2CC2)c1 (stereo not shown) [Example 367]
23.7

Cool, now CS(=O)(=O)N(Cc1ccccc1)c1cccc(C(c2c(O)c3c(oc2=O)CCCCCC3)C2CC2)c1 (stereo not shown) [Example 245]
10.6

Cool, now O=c1oc2c(c(O)c1C(c1cccc(NS(=O)(=O)c3c(Cl)cccc3Cl)c1)C1CC1)CCCCCC2 (stereo not shown) [Example 295]
25.9

Cool, now CC(C)(O)C1CCCCCc2c1oc(=O)c(C(c1ccccc1)C1CC1)c2O (stereo not shown) [Example 175]
19.4

Cool, now O=c1oc2c(c(O)c1C(c1ccc(NS(=O)(=O)c3cccc([N+](=O)[O-])c3)cc1)C1CC1)CCCCCC2 (stereo not shown) [Example 475]
27.9

Cool, now Cc1cccc(Cl)c1S(=O)(=O)Nc1cccc(C(c2c(O)c3c(oc2=O)CCCCCC3)C2CC2)c1 (stereo not shown) [Example 287]
44.1

Cool, now Cn1cnc(S(=O)(=O)Nc2ccc(C(c3c(O)c4c(oc3=O)CCCCCC4)C3CC3)cc2)c1 (stereo not shown) [Example 476]
19.5

Cool, now O=c1oc2c(c(O)c1C(c1cccc(NS(=O)(=O)c3c(Cl)cc(Cl)cc3Cl)c1)C1CC1)CCCCCC2 (stereo not shown) [Example 306]
24.4

Cool, now COc1cccc(OC)c1S(=O)(=O)Nc1cccc(C(c2c(O)c3c(oc2=O)CCCCCC3)C2CC2)c1 (stereo not shown) [Example 334]
42.3

Continuing:
GET /values?readout=inhibition at 1.1 µM&item= O=C(Nc1ccc(C(c2c(O)c3c(oc2=O)CCCCCC3)C2CC2)cc1)OCc1ccccc1 (stereo not shown) [Example 470]
16.1

Cool, now O=C(C=Cc1ccccc1)Nc1cccc(C(c2c(O)c3c(oc2=O)CCCCCC3)C2CC2)c1 (stereo not shown) [Example 208]
22.9

Cool, now O=c1oc2c(c(O)c1C(c1ccccc1)C1CC1)CCCCC2CC1CCOC1 (stereo not shown) [Example 191]
55

Cool, now O=c1oc2c(c(O)c1C(c1cccc(NCc3ccccc3)c1)C1CC1)CCCCCC2 (stereo not shown) [Example 242]
13.8

Cool, now CC(O)CC1CCCCc2c1oc(=O)c(C(c1ccccc1)C1CC1)c2O (stereo not shown) [Example 192]
24.9

Cool, now COCOCc1ccc(C(c2c(O)c3c(oc2=O)CCCCCC3)C2CC2)o1 (stereo not shown) [Example 386]
14.3
